These data points were gathered from the Deep4Chem optical property database.

- protocol notes: solvent given as SMILES
- study conditions: in CC(C)(C)O
metric: absorption maximum (nm)

{"columns": ["compound structure", "result unit", "absorption maximum"],
 "data": [
  ["Cc1cc(O)c(C(C)C)cc1/N=C/c1ccc(O)cc1", "nm", 345],
  ["Cc1cc(O)c(C(C)C)cc1/N=C/c1ccc(C(F)(F)F)cc1", "nm", 368],
  ["Fc1ccc(-c2nc3n(c2-c2ccncc2)CCS3)cc1", "nm", 329.5],
  ["COc1ccc(C(=O)/C=C2\\C(=O)Nc3ccccc32)cc1", "nm", 345],
  ["COCCOc1cc(C=O)c(OCCOC)cc1C=O", "nm", 393],
  ["O=C1Nc2ccccc2/C1=C/C(=O)c1ccc([N+](=O)[O-])cc1", "nm", 347],
  ["Cc1c2ccncc2c(C)c2c1[nH]c1ccccc12", "nm", 294.5]
]}
